# Inhibitory ratio (%) values compiled below
- Test system: Listeria monocytogenes ATCC49594
- testDescription: Antibacterial test in BHI culture medium: turbidity, inhibitory ratio and bacteria growth (Experimental Example 2)
- Format: cell-based
- appliedConditions: added substance 100 ppm; from turbidity vs dimethylsulfoxide standard; 30° C. for 24 hours
Express the result in % but write the number alone.

Study these solved cases before continuing.
CCO[C@H]1c2cc(C(C)C)c(O)c(O)c2[C@@]23CCCC(C)(C)[C@@H]2[C@@H]1OC3=O | 0.5
CC(C)c1cc2c(c(O)c1O)[C@@]13CCCC(C)(C)[C@@H]1[C@H](OC3=O)[C@@H]2O [Epirosmanol] | 0.0
CC(C)c1cc2c(cc1O)[C@@]1(C)CCCC(C)(C)[C@@H]1CC2 | 43.0
CC(C)c1cc2c(cc1O)[C@H]1CCCC(C)(C)[C@@H]1CC2 | 21.0
CC(C)c1cc2c(c(O)c1O)[C@@]13CCCC(C)(C)[C@@H]1[C@H](OC3=O)[C@H]2O | 5.1

Supply Inhibitory ratio (%) value. Item: CC(C)c1cc2c(c(O)c1O)[C@@]13CCCC(C)(C)[C@@H]1C[C@@H]2OC3=O
0.0

Supply Inhibitory ratio (%) value. Item: C=C(C)[C@@H]1CC[C@]2(C(=O)O)CC[C@]3(C)[C@H](CC[C@@H]4[C@@]5(C)CC[C@H](O)C(C)(C)[C@@H]5CC[C@]43C)[C@@H]12
0.0

Supply Inhibitory ratio (%) value. Item: COc1c(C(C)C)cc2c(c1O)C1(C(=O)O)CCCC(C)(C)C1CC2 (stereo not drawn) [12-Methoxy-tarns-carnosic acid, 12-methoxy-trans-carnosic acid]
17.7
